tested on: Dissociated VM cells; test: Neuroprotection Assay (NMDA-induced neuroexcitotoxic injury, high affinity 3H-dopamine uptake); type: cell-based, Sprague-Dawley rat; conditions: embryonic day 15 rat ventral mesencephalic cultures, NMDA (100-400 µM) for 20 hours
pEC50: −log10 of the molar value. Where a name gives a salt, the structure may show the parent alone.
Recorded Endpoint: pEC50

IN: // map CCN1CCCC[C@H]1C(=O)N1CCC(C(c2ccccc2)c2ccccc2)CC1 [Compound 44, hydrochloride] to recorded pEC50 (system: Dissociated VM cells)
OUT: > 7.00

IN: Let us now turn to CCN1CCCC[C@H]1C(=O)N1CCN(C(=O)c2ccccc2)CC1 [Compound 78]
OUT: < 6.30

IN: Let us now turn to CN1CCCC(C(=O)N2CCC(Cc3ccccc3)CC2)C1 (stereo not drawn) [Compound 204]
OUT: 6.30 to 7.00

IN: Let us now turn to C=CCN1CCC(C(=O)N2CCN(c3ccc(F)cc3)CC2)CC1 [Compound 258]
OUT: 6.30 to 7.00

IN: Let us now turn to CCN1CCCC[C@H]1C(=O)N1CCN(Cc2ccc3c(c2)OCO3)CC1 [Compound 71, dihydrochloride]
OUT: < 6.30

IN: Let us now turn to CCN1CCCC[C@H]1C(=O)N1CCC[C@H]1C(c1ccccc1)c1ccccc1 [Compound 27]
OUT: < 6.30

IN: Let us now turn to CC(C)=CCN1CCCC[C@H]1C(=O)N1CCN(C(c2ccc(F)cc2)c2ccc(F)cc2)CC1 [Compound 65]
OUT: > 7.00

IN: Let us now turn to O=C([C@@H]1CCCCN1CC1CC1)N1CCN(C(c2ccc(F)cc2)c2ccc(F)cc2)CC1 [Compound 63]
OUT: < 6.30

IN: Let us now turn to CCN1CCCC[C@H]1C(=O)N1CCN(C(c2ccc(F)cc2)c2ccc(F)cc2)CC1 [Compound 25]
OUT: 6.30 to 7.00
